Each recorded value in this set is attributed to PubChem BioAssay (NCATS).

test system: P93_24; experiment: qHTS profiling for inhibitors of Plasmodium falciparum proliferation (AID 504749); also: nearly all actives have a fitted effect of over 60% in size; settings: P. falciparum in erythrocytes, SYBR Green DNA, 72 h; series mostly up to 12.8 µM
Inconclusive results are not listed. The source made the active and inactive calls. Calls follow the shape of the dose curve; as a rule, active = well fitted inhibition curve with a large enough effect; inconclusive = small, poorly fitted or top-dose-only effect; inactive = flat fitted curve, though single readings scatter.
Classes to choose from: active, inactive

Examples with answers:
INSERT INTO results (molecule, class) VALUES
  ('CC1(C)S[C@H]2C(NC(=O)[C@@H](N)c3ccc(O)cc3)C(=O)N2[C@@H]1C(=O)O (stereo partly drawn)', 'inactive'),
  ('COc1cc(C2c3cc4c(cc3C(O[C@@H]3OC5COC(c6cccs6)OC5C(O)C3O)C3COC(=O)C23)OCO4)cc(OC)c1O (stereo partly drawn)', 'active'),
  ('CCOC(=O)C1=CC(OC(CC)CC)C(NC(C)=O)C(N)C1 (stereo not drawn)', 'inactive'),
  ('CC[C@H]1NC(=O)c2cc(S(N)(=O)=O)c(Cl)cc2N1', 'inactive'),
  ('CCC[C@@H]1O[C@@H]2C[C@@H]3[C@H]4CCC5=CC(=O)C=C[C@@]5(C)[C@H]4[C@H](O)C[C@@]3(C)[C@@]2(C(=O)CO)O1', 'active'),
  ('CCOC(=O)Oc1c(OC)cc(C(=O)O[C@H]2C[C@H]3CN4CCc5c([nH]c6cc(OC)ccc56)[C@@H]4C[C@H]3[C@@H](C(=O)OC)[C@@H]2OC)cc1OC', 'active');

Exercise: State the result this test recorded for CC(C)(C)NC[C@@H](O)COc1ccccc1C1CCCC1 .
Solution: active

Exercise: Just curious, what result did CO[C@]12C(COC(N)=O)C3=C(C(=O)C(C)=C(N)C3=O)N1CC1NC12 (stereo partly drawn) get here?
Solution: active

Exercise: What was the test verdict on O=C1O[C@@H]([C@@H](O)CO)[C@@H](O)[C@H]1O ?
Solution: inactive

Exercise: Would you mind telling me which call this test gave CC(=O)N(C[C@@H](C)C(=O)O)c1c(I)cc(I)c(N)c1I ?
Solution: inactive

Exercise: Please let me know the test result on file for CCOC(=O)O[C@@H](C)OC(=O)[C@@H]1N2C(=O)[C@@H](NC(=O)[C@@H](N)c3ccccc3)[C@H]2SC1(C)C .
Solution: inactive

Exercise: State the result this test recorded for COC(=O)C1=C(C)NC(C)=C(C(=O)OC(C)C)[C@H]1c1cccc2nonc12 .
Solution: inactive

Exercise: Answer briefly: the call reported for C[C@H]1CC[C@]2(OC1)O[C@@H]1C[C@@H]3[C@@H]4CC[C@H]5C[C@@H](O)CC[C@]5(C)[C@@H]4CC(=O)[C@@]3(C)[C@H]1[C@@H]2C in this assay.
Solution: inactive

Exercise: What classification did CNC[C@H](O)c1ccc(OC(=O)C(C)(C)C)c(OC(=O)C(C)(C)C)c1 end up with in this test?
Solution: inactive

Exercise: Could you kindly confirm the outcome this assay logged for CC1(C)OC2CO[C@]3(COS(N)(=O)=O)OC(C)(C)OC3C2O1 (stereo partly drawn) ?
Solution: inactive

Exercise: Tell me the assay call for COC(=O)N/N=C/C1=C[N+](=O)c2ccccc2[N+]1=O please.
Solution: inactive

Exercise: For this molecule, state the assay outcome: CCc1c(C)[nH]c2c1C(=O)[C@H](CN1CCOCC1)CC2
Solution: inactive

Exercise: Which outcome did this test record for the molecule CN[C@H]1[C@H](O)[C@@H](O[C@@H]2[C@H](O)[C@@H](O[C@H]3OC(CN)=CC[C@H]3N)[C@@H](N)C[C@H]2N)OC[C@@]1(C)O ?
Solution: inactive
